target: cGAS (Homo sapiens); experiment: Cellular assay to measure cGAS activity (IFNb AlphaLISA in THP1 cells stimulated by RDG-Adenovirus-GFP); format: cell-based; parameters: host or cells: THP1 cells differentiated with PMA and stimulated with RDG-Adenovirus-GFP; conditions: PMA-differentiated THP1 cells, RDG-Adenovirus-GFP at 1000 MOI; inhibition of IFNb production as marker for cGAS activity
The molecules listed here are annotated with their IC50.
Measured metric: IC50

>>> observed_value("C[C@@H]1C(=O)NCCc2[nH]c3c(Cl)c(Cl)cc(OCc4cocn4)c3c21 (single isomer, unassigned) [Example 179]")
"> 10 µM"
>>> observed_value("C[C@@H]1CNC(=O)[C@H](C)c2c1[nH]c1c(Cl)c(Cl)cc(NCCO)c21 (single isomer, unassigned) [Example 156]")
"> 10 µM"
>>> observed_value("COCCNc1cc(Cl)c(Cl)c2c1c1c(n2C)CCNC(=O)C1C (stereo not drawn) [Example 96]")
"> 10 µM"

###

target: cGAS (Homo sapiens, UniProt Q8N884); test: Cellular assay to measure cGAS activity (IFNb AlphaLISA in THP1 cells stimulated by RDG-Adenovirus-GFP); type: cell-based; design: host or cells: THP1 cells differentiated with PMA and stimulated with RDG-Adenovirus-GFP; conditions: PMA-differentiated THP1 cells, RDG-Adenovirus-GFP at 1000 MOI; inhibition of IFNb production as marker for cGAS activity
Sequence (Q8N884 whole entry): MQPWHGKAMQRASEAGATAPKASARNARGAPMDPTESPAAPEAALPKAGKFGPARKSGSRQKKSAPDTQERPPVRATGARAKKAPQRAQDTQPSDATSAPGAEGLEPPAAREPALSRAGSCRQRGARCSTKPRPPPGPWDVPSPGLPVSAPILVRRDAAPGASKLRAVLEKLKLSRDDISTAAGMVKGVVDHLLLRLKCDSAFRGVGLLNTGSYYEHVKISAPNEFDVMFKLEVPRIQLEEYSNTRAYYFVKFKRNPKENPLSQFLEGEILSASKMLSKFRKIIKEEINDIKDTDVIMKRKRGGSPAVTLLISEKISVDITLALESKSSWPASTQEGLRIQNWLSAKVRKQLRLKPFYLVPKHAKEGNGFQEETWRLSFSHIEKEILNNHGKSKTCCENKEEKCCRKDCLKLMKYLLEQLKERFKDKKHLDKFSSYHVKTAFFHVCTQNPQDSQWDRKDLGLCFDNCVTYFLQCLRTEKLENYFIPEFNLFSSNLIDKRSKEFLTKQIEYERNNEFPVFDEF
IC50 by entry:
Measured metric: IC50 (nM)

>>> observed_value("COCC[C@H]1CNC(=O)Cc2c1[nH]c1c(Cl)c(Cl)cc(-c3cnn(C)n3)c21 (single isomer, unassigned)")
4600
>>> observed_value("C[C@@H]1C(=O)NCCc2[nH]c3c(Cl)c(Cl)cc(OC[C@@H](C)O)c3c21 (single isomer, unassigned) [Example 82]")
910
>>> observed_value("COCCOc1cc(Cl)c(Cl)c2[nH]c3c(c12)C(C)C(=O)NCC3 (stereo not drawn)")
591

###

biological target: cGAS (Homo sapiens, UniProt Q8N884); assay: In vitro inhibition assay of cGAS activity (cGAMP production, RapidFire mass spectrometry); format: biochemical; parameters: Insert cDNA encoding full-length of human cGAS; His6; made in house; host or cells: E. coli BL21(DE3); settings: 10 nM recombinant human cGAS, 60 nM 75-bp dsDNA, 50 μM ATP, 50 μM GTP, 3 hrs
pIC50: −log10 of the molar value.
Decision: pIC50 compared against 7; not below it gives rule met, below it gives rule not met.

>>> cat("COCC[C@H]1CNC(=O)[C@H](C)c2c1[nH]c1c(Cl)c(Cl)cc(NCCO)c21 (single isomer, unassigned) [Example 172]")
"rule not met"
>>> cat("C[C@@H]1CNC(=O)[C@@H](C)c2c1[nH]c1c(Cl)c(Cl)cc(NCCO)c21 (single isomer, unassigned) [Example 154]")
"rule met"
>>> cat("C[C@@H]1CNC(=O)[C@H](C)c2c1[nH]c1c(Cl)c(Cl)cc(NCCO)c21 (single isomer, unassigned) [Example 156]")
"rule not met"
>>> cat("COCCOc1cc(Cl)c(Cl)c2[nH]c3c(c12)[C@H](C)C(=O)NCC3(C)C (single isomer, unassigned) [Example 184]")
"rule met"
>>> cat("C[C@H](O)C(=O)Nc1cc(Cl)c(Cl)c2[nH]c3c(c12)[C@@H](C)C(=O)NCC3 (single isomer, unassigned) [Example 42]")
"rule not met"

src = patent US20240246979A1
